# study system: T1, HLA-DQ molecule DQB1*0501 (human, limits assumed)
# T1 MHC II alpha: not shown
# T1 MHC II beta: not shown
# procedure details: inhibition of radiolabeled peptide binding to purified HLA
readout name: pIC50
Answers are plain numbers, as −log10 of the molar value.

QUERY: Data request, read-out pIC50, for EIYNMVKFRMIAGQE [Der p 4 peptide 3324.0978 (position 386)]
RESULT: 5.43
